Assay: chemical genetic growth profiling, strain panel (AID 1159580);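 further: tested at 20 µM; growth read once vehicle control cultures reached saturation at 30 °C; 1 = growth at the plate median or of vehicle wells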
Conditions: S. cerevisiae deletion strains, growth OD, locus YPR106W, strain ISR1, stronger effect = lower value
In all, about 5,500 compounds went through this assay and about 2,000 (36%) were called active. Roughly 18% stayed inconclusive and do not appear here. The list shows a part of the results.
assayEndpoint: normalized growth
Could you respond with only the numeric value?

Task: Give me measured normalized growth, please, for this compound: `CN1/C(=C/C=C/c2ccc3ccccc3[n+]2C)C=Cc2ccccc21`
Result: 0.929

Task: Using the record for `Cc1cc(Br)c(O)c(/C=N\NC(=S)NC(C)(C)C)c1` , state its measured normalized growth.
Result: 0.987

Task: Please look at this compound and report its normalized growth: `CC(C)(C)NC(=S)N/N=C\c1cc(Br)c(O)c(Br)c1`
Result: 0.957

Task: Complete the entry with normalized growth for `Cc1ccc(Sc2ncccc2NS(=O)(=O)c2ccc(Cl)cc2)cc1`
Result: 0.925

###

Assay: chemical genetic growth profiling, strain panel (AID 1159580)
Conditions: S. cerevisiae deletion strains, growth OD, locus YLL026W
The campaign covered roughly 5,500 compounds. About 2,000 (36%) were called active. Another 18% or so got no clear call; they are omitted. Rule as the data show it: active = normalized growth mostly below about 0.91 (no sharp cut-off); inconclusive = no clear call, values can overlap the other calls; inactive = mostly above about 0.92. The list shows a part of the results.
Write down one outcome, taken from active, inactive

Task: How did this test come out for `C=CCSSCC=C` ?
Result: inactive

Task: For C[C@@H]1CC[C@@]23CCC4(C)[C@@](C=CC5[C@@]6(C)CC[C@H](O)C(C)(C)C6CC[C@]54C)(OC2=O)C3[C@H]1C (stereo partly specified) , what call appears in the results of this test?
Result: inactive

Task: Could you kindly confirm the outcome this assay logged for CC1(C)S[C@@H]2[C@H](NC(=O)C(C(=O)O)c3ccccc3)C(=O)N2[C@H]1C(=O)O (stereo partly specified) ?
Result: inactive

Task: Test call for this compound, please: `Cc1cc(N)c2ccccc2[n+]1CCCCCCCCCC[n+]1c(C)cc(N)c2ccccc21`
Result: active

Task: Give the logged outcome of this assay for the following compound: CC1(C)C(=O)CC[C@@]2(C)C1C[C@@H](O)[C@@]1(C)C3=CC(=O)O[C@@H](c4ccoc4)[C@]3(C)CCC21 (stereo partly specified)
Result: inactive

Task: Returns: the outcome recorded for `NCCCC(O)(P(=O)(O)O)P(=O)(O)O` in this assay.
Result: inactive

Task: GET /call?item= `CC(C)c1cccc(O)c(=O)c1` returns the recorded outcome of this test.
Result: active

Task: I'd appreciate the recorded outcome for `C=CCSC[C@@H](N)C(=O)O` from this test.
Result: inactive

Task: So what was the verdict on `COC1=CC(=O)C=C(OC)C1=O` in this test?
Result: inactive

Task: Assay result, entry CC(C)(C)NCC(O)COc1cccc2c1C[C@H](O)[C@H](O)C2 (stereo partly specified) — outcome?
Result: inactive

Task: # lookup: test call for `CC(C)c1cccc(C(C)C)c1O`
Result: inactive

###

Test: chemical genetic growth profiling, strain panel (AID 1159580);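 further: tested at 20 µM; growth read once vehicle control cultures reached saturation at 30 °C; 1 = growth at the plate median or of vehicle wells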
Details: S. cerevisiae deletion strains, growth OD, locus YHR027C, strain rpn1
The whole screen tested about 5,500 compounds, of which about 2,000 (36%) were called active. About 18% were inconclusive and are not listed. No stated cut-off is given here; in the data, active means normalized growth mostly below about 0.91 (no sharp cut-off); inconclusive means no clear call, values can overlap the other calls; inactive means mostly above about 0.92. The list shows a part of the results.
Result category, one only: active, inactive

Task: Assay outcome for `NC(=O)c1ccccc1O` : what was it?
Result: inactive

Task: Please state the recorded outcome for this molecule: `CC1(C)[C@@H]2CC[C@@]1(C)C(=O)C2`
Result: inactive

Task: Which outcome did this test record for the molecule `O=c1c(O)cc([C@H]2Oc3cc(O)cc(O)c3C[C@H]2O)cc2c([C@H]3Oc4cc(O)cc(O)c4C[C@H]3O)cc(O)c(O)c12` ?
Result: inactive

Task: For `O=C(CCCN1CCN(c2ccccn2)CC1)c1ccc(F)cc1` , what call appears in the results of this test?
Result: inactive

Task: Could you check what this test reported for `CCn1nc(C(=O)O)c(=O)c2cc3c(cc21)OCO3` ?
Result: inactive

Task: Record lookup: outcome of this test for `CCc1ccc2c(O)c3c(cc2c1C(=O)OC)C(=O)c1c(O)ccc(O)c1C3=O` ?
Result: inactive

Task: So what was the verdict on `O=C(CCCN1CCC(O)(c2ccc(Cl)cc2)CC1)c1ccc(F)cc1` in this test?
Result: active

Task: Write down the call the test reported for this molecule. Item: `NC[C@H]1O[C@H](O[C@H]2[C@H](O)[C@@H](O[C@H]3O[C@H](CO)[C@@H](O)[C@H](N)[C@H]3O)[C@H](N)C[C@@H]2N)[C@H](N)[C@@H](O)[C@@H]1O`
Result: inactive

Task: Short answer needed: outcome of this test for CCCCC(=O)O[C@]1(C(=O)CO)[C@@H](C)CC2C3CCC4=CC(=O)C=C[C@]4(C)[C@@]3(F)C(O)C[C@@]21C (stereo not given in full) ?
Result: inactive

Task: What call does the record list for `O=C(CCCN1CCC2(CC1)C(=O)NCN2c1ccccc1)c1ccc(F)cc1` ?
Result: inactive

Task: Fill in: this test's call for `C/C=C(\C)C(=O)O[C@@H]1c2c(ccc3ccc(=O)oc23)OC(C)(C)[C@@H]1OC(C)=O` is ___
Result: inactive

Task: For `O=C(O)C1=CC(=C(c2ccc(O)c(C(=O)O)c2)c2ccc(O)c(C(=O)O)c2)C=CC1=O` , what call appears in the results of this test?
Result: inactive

Task: For this molecule, state the assay outcome: `CC(=O)O[C@@H]1c2c(ccc3ccc(=O)oc23)OC(C)(C)[C@@H]1OC(=O)CC(C)C`
Result: inactive

Task: I would be grateful if you could indicate the recorded call for CCC(=O)OCC(=O)[C@@]1(OC(=O)CC)[C@@H](C)CC2C3CCC4=CC(=O)C=C[C@]4(C)C3(F)[C@@H](O)C[C@@]21C (stereo not given in full) .
Result: inactive

Task: Returns: the outcome recorded for `COC(=O)NC(=S)Nc1ccccc1NC(=S)NC(=O)OC` in this assay.
Result: inactive

Task: Per the records of this test, what outcome belongs to `O=S(=O)(O)O` ?
Result: inactive

Task: GET /call?item= `O=C(/C=C(\O)c1ccccc1)c1ccccc1O` returns the recorded outcome of this test.
Result: active

Task: In this assay, the call recorded for `Nc1ccc(S(=O)(=O)Nc2ncccn2)cc1` was what?
Result: inactive

Task: What outcome does the record of this test show for `O=C(O)c1ccccc1O` ?
Result: inactive

Task: Record request — test call for `COC(=O)[C@H]1[C@H]2C[C@H]3c4[nH]c5cc(OC)ccc5c4CCN3C[C@H]2C[C@@H](OC(=O)c2cc(OC)c(OC)c(OC)c2)[C@@H]1OC`
Result: inactive

###

Test: chemical genetic growth profiling, strain panel (AID 1159580);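 further: tested at 20 µM; growth read once vehicle control cultures reached saturation at 30 °C; 1 = growth at the plate median or of vehicle wells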
Settings: S. cerevisiae deletion strains, growth OD, strain wtn01, stronger effect = lower value
Out of some 5,500 compounds screened, about 2,000 (36%) were called active. Not shown: some 18% with an inconclusive outcome. The list shows a part of the results.
assayEndpoint: normalized growth
Field format: numeric only.

Task: Provide measured normalized growth value, entry: `CC1(C)[C@@H]2CC[C@@]1(C)C(=O)C2`
Result: 0.987

Task: Specify normalized growth for `CCn1nc(C(=O)O)c(=O)c2cc3c(cc21)OCO3` and stop.
Result: 1.02

Task: // fetch normalized growth given entry NCC(O)CC(=O)O (stereo not given)
Result: 0.99

Task: For `Cc1cc(N)c2ccccc2[n+]1CCCCCCCCCC[n+]1c(C)cc(N)c2ccccc21` , write its normalized growth.
Result: 0.0664

Task: Return the recorded normalized growth value; entry: CSCCC(N)C(=O)NC(CC(C)C)C(=O)NC(Cc1ccccc1)C(=O)O (stereo not given)
Result: 1.01

Task: Could you please provide reported normalized growth for `Nc1nc(/C(=C/CC(=O)O)C(=O)N[C@@H]2C(=O)N3C(C(=O)O)=CCS[C@H]23)cs1` ? Thanks!
Result: 0.985

Task: Identify the reported normalized growth for the following entry. `O=C(O)CN(CCN(CC(=O)O)CC(=O)O)CC(=O)O`
Result: 0.816

Task: // Input: Cc1c(OCC(F)(F)F)ccnc1CS(=O)c1nc2ccccc2[nH]1 (stereo not given) . Output its normalized growth only.
Result: 0.95

Task: Retrieve normalized growth measured for COC1CC(O[C@H]2CC[C@]3(C=O)C4CC[C@]5(C)C(C6=CC(=O)OC6)CC[C@]5(O)C4CC[C@]3(O)C2)OC(C)C1O (stereo not given in full) and print it.
Result: 1.01

Task: // Input: C[C@]12CCC3C(CC[C@]4(O)C[C@@H](O)CC[C@]34C=O)[C@@]1(O)CCC2C1=CC(=O)OC1 (stereo not given in full) . Output its normalized growth only.
Result: 1.01

###

Consider the following compounds; for each one, report its normalized growth.
Experiment: chemical genetic growth profiling, strain panel (AID 1159580);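 further: tested at 20 µM; growth read once vehicle control cultures reached saturation at 30 °C; 1 = growth at the plate median or of vehicle wells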
Conditions: S. cerevisiae deletion strains, growth OD, locus YHR027C, strain rpn1, stronger effect = lower value
The campaign covered roughly 5,500 compounds. About 2,000 (36%) were called active. About 18% were inconclusive and are not listed. Some of the results follow.
Answer with a number only.

Task: Consider the compound NCC(O)CC(=O)O (stereo not drawn) . State its measured normalized growth.
Result: 0.997

Task: Return normalized growth (reported value) for this compound: COC1CC(OC2CCC3(C)C(CCC4C3CCC3(C)C(C5=CC(=O)OC5)C(OC(C)=O)CC43O)C2)OC(C)C1O (stereo not drawn)
Result: 1.03

Task: In one line, give reported normalized growth of the entry CC1=CC(=O)C2C(C)(C)CCC[C@]2(C)[C@@]1(O)CCc1ccoc1 (stereo partly drawn) .
Result: 0.99

Task: Please indicate normalized growth recorded for `CNC[C@H](O)c1cccc(O)c1`
Result: 0.99

Task: Given the compound C[C@]12CCC3C(CC[C@]4(O)C[C@@H](O)CC[C@]34C=O)[C@@]1(O)CCC2C1=CC(=O)OC1 (stereo partly drawn) , write its reported normalized growth.
Result: 0.973

Task: Answer with reported normalized growth of CC1=C2C(O)C(=O)OC3CC4C(C)(C)C(=O)C=C[C@]4(C)C(CC1)[C@]23C (stereo partly drawn)
Result: 1.02

Task: Answer with the recorded normalized growth for the compound listed here: `COc1ccc(-c2cc(=O)c3c(O)c(OC)c(OC)c(OC)c3o2)cc1OC`
Result: 1

Task: Provide normalized growth value for the following compound: C[C@H]1O[C@H](O[C@H]2[C@H](O)[C@@H](O)[C@@H](O[C@H]3[C@H](O)[C@@H](O)C(O)O[C@@H]3CO)O[C@@H]2CO)[C@H](O)[C@@H](O)[C@@H]1N[C@H]1C=C(CO)[C@@H](O)[C@H](O)[C@H]1O (stereo partly drawn)
Result: 1.01

Task: Give a short answer stating reported normalized growth for `COc1ccc(-c2cc(=O)c3c(O)c(OC)c(O[C@H]4O[C@H](CO[C@@H]5O[C@@H](C)[C@H](O)[C@@H](O)[C@H]5O)[C@@H](O)[C@H](O)[C@H]4O)cc3o2)cc1` .
Result: 0.99

Task: Respond only with normalized growth recorded for COC(=O)C(N)CS (stereo not drawn)
Result: 0.97

Task: Given the compound COC(=O)CC1C(C)(C)C(OC(C)=O)[C@@H]2[C@@H](OC(C)=O)[C@]34O[C@@]2(O)[C@]1(C)C3CC[C@]1(C)C4=CC(=O)O[C@H]1c1ccoc1 (stereo partly drawn) , write its reported normalized growth.
Result: 1.01

Task: Answer with reported normalized growth of `CCC(=O)NCC[C@@H]1CCc2ccc3c(c21)CCO3`
Result: 0.998

Task: In one line, give reported normalized growth of the entry `CSc1nc(NC(C)C)nc(NC(C)C)n1` .
Result: 0.972

Task: Report normalized growth, nothing else, for this compound: `Cc1cc(N)c2ccccc2[n+]1CCCCCCCCCC[n+]1c(C)cc(N)c2ccccc21`
Result: 0.0661

Task: Please report the measured normalized growth for CC1(C)S[C@@H]2C(N3C(=O)[C@@H](c4ccccc4)NC3(C)C)C(=O)N2[C@H]1C(=O)O (stereo partly drawn)
Result: 1.02

Task: State its normalized growth: `COc1cc(-c2cc(=O)c3c(O)c(OC)c(OC)c(OC)c3o2)cc(OC)c1OC`
Result: 1.01

Task: Find the measured normalized growth of `CC1(C)S[C@@H]2[C@H](NC(=O)[C@@H](N)c3ccc(O)cc3)C(=O)N2[C@H]1C(=O)O` and report it.
Result: 0.989

Task: Supply normalized growth value. Item: CC(C)(C)NCC(O)COc1cccc2c1CCCC2=O (stereo not drawn)
Result: 0.996
